experiment: Aqueous solubility in phosphate buffer at pH 6.5; format: physicochemical
parameterMeasured: solubility (µg/mL)

| molecule | unitOfMeasure | solubility |
| --- | --- | --- |
| O=C(NOC[C@H](O)CO)c1ccc(F)c(F)c1Nc1ccc(I)cc1F [MIRDAMETINIB] | µg/mL | 190 |

[P] O=C(NOCC(O)CO)c1ccc(F)c(F)c1Nc1ccc(I)cc1F (racemic)
[Q] O=C(NOC[C@@H](O)CO)c1ccc(F)c(F)c1Nc1ccc(I)cc1F
Q: In terms of reported solubility, does P or Q have the smaller number? Please respond with the label that marks your chosen entry.
Result: P
(P: 147 µg/mL, Q: 255 µg/mL)

###

test: Inhibition of MEK-mediated phosphorylation of myelin basic protein by kinase cascade assay
parameterMeasured: IC50 (nM)

| molecule | unitOfMeasure | numericReadout |
| --- | --- | --- |
| Cc1cc(I)ccc1Nc1c(C(=O)NOCC2CCC2)cc(Br)c(F)c1F | nM | 10 |

[a] Cc1cc(I)ccc1Nc1cc(Cl)ccc1C(=O)O
[b] Cc1cc(I)ccc1Nc1c(C(=O)NOC(C)C)ccc(F)c1F
Q: Pick one, a or b : lowest reported IC50. I would appreciate it if you answered with the label of your choice.
Result: b

[1] Cc1cc(I)ccc1Nc1cccc(F)c1C(=O)O
[2] O=C(NO)c1ccc(F)cc1Nc1ccc(I)cc1Cl
Q: Could you determine which record has the numerically smaller IC50? Candidates: 1 and 2 In your reply, give the label of the chosen option.
Result: 2
(2: 2.8 nM, 1: 518 nM)

[A] O=C(NOCC1CC1)c1ccc(F)c(F)c1Nc1ccc(I)cc1Cl [CI-1040]
[B] CCCONC(=O)c1ccc(F)c(F)c1Nc1ccc(I)cc1C
Q: Endpoint returns the identifier whose IC50 is numerically larger, either A or B . State the label of the item chosen.
Result: B
(B: 18 nM, A: 2.3 nM)

###

assay: Permeability across human Caco-2 cells; assay type: ADME, cell-based; details: read-out: permeability
parameterMeasured: Papp (×10⁻⁶ cm/s)
Report the figure in ×10⁻⁶ cm/s without appending any unit label.

| chemicalString | unitOfMeasure | Papp |
| --- | --- | --- |
| O=C(NOC[C@H](O)CO)c1ccc(F)c(F)c1Nc1ccc(I)cc1F | ×10⁻⁶ cm/s | 72.7 |

Q: Please look at this compound and report its Papp: O=C(NOCC1CC1)c1ccc(F)c(F)c1Nc1ccc(I)cc1Cl
Result: 16.2

###

assay: Metabolic stability in human hepatocytes; type: ADME, cell-based, Liver, Hepatocyte
parameterMeasured: half-life (h)
Field: numeric (h). Do not append units.

| chemicalString | parameterMeasured | numericReadout |
| --- | --- | --- |
| O=C(NOCC1CC1)c1ccc(F)c(F)c1Nc1ccc(I)cc1Cl | half-life | 1.67 |

Attention now shifts to the item below.
Q: Please list half-life recorded for the molecule O=C(NOC[C@H](O)CO)c1ccc(F)c(F)c1Nc1ccc(I)cc1F
Result: 6.17

###

experiment: Metabolic stability in human liver microsomes; format: ADME, Microsome
parameterMeasured: half-life (min)
The reply should be a number in min, with the unit left off.

Q: Return half-life for the following molecule: O=C(NOCC1CC1)c1ccc(F)c(F)c1Nc1ccc(I)cc1Cl
Result: 11.5

###

experiment: Inhibition of MEK-mediated phosphorylation of myelin basic protein by kinase cascade assay
parameterMeasured: IC50 (nM)

Known IC50 results, listed for orientation:
| chemicalString | numericReadout |
| --- | --- |
| Cc1cc(I)ccc1Nc1c(C(=O)NOCC2CCCCC2)cc(Br)c(F)c1F | 48 |
| Cc1cc(I)ccc1Nc1cc(F)ccc1C(=O)NO | 7.96 |

[A] Cc1cc(I)ccc1Nc1c(C(=O)O)ccc(F)c1F
[B] O=C(NOCC1CC1)c1ccc(F)cc1Nc1ccc(I)cc1Cl
[C] Cc1cc(I)ccc1Nc1cc(F)ccc1C(=O)NOCC1CC1
[D] Cc1cc(I)ccc1Nc1ccc(F)cc1C(=O)O
Q: Sort ascending by IC50. List the labels in the requested order.
Result: A, B, C, D

[I] Cc1cc(I)ccc1Nc1c(C(=O)NOCC2CC2)cc(Br)c(F)c1F
[II] Cc1cc(I)ccc1Nc1ccccc1C(=O)O
[III] Cc1cc(I)ccc1Nc1cc(F)ccc1C(=O)O
[IV] O=C(O)c1ccccc1Nc1ccc(I)cc1
Q: Order the records so the highest IC50 appears first and the lowest last. Please list each label once, in the requested order.
Result: IV, II, III, I
